This collection of values is drawn from patent US11141452.

measuredOn: T1, rat NK1 receptor (rat, UniProt P14600)
T1 chain: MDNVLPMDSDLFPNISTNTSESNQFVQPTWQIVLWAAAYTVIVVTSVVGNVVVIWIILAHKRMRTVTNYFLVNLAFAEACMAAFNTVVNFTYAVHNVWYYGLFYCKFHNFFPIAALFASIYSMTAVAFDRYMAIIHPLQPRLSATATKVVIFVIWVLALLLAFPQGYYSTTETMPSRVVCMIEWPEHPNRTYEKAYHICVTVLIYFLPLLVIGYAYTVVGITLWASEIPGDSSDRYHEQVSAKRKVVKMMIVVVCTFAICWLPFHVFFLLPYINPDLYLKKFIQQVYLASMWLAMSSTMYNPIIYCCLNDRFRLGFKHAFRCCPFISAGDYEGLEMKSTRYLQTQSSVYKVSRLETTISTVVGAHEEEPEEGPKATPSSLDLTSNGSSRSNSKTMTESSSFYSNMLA
protocolText: competition
propertyMeasured: Ki (nM)
The answer is to be given in nM; state only the numeric part.

Recorded result, YPFFPLW [AKG226] , Ki: 31.7

Kindly note the recorded Ki for YPFFPLW [AKG224] , which is 33.7

The binder YPFFPLW [AKG222] showed Ki equal to 32.4
